# experimental-system: WDR5 (Homo sapiens (Human), UniProt P61964)
# method-description: Fluorescence polarization anisotropy (FPA) competition assay, displacement of FITC-MLL or 10mer-Thr-FAM peptide
# Type: binding
# measurement-context: Table C2, WDR5 WIN-site binding affinity; values not less than 1 nM (FPA)
# Text: The assay is run in 384-well format and is read on a BioTek Cytation. […] Replicate values are fit to a 4-parameter fit in XLFit to generate a single IC50 value for each compound that is then converted to a Ki value. Experiments are repeated to generate a 2nd, independent Ki value; values from the two experiments are averaged to produce the reported Ki value for the compound.
Provide the recorded Ki for the entries that follow.
Answers are plain numbers, in nM.

Worked cases, Ki given:
Cc1cc(CNC(=O)c2cc(CNC3=NCCC3)cc(-c3ccc(F)cc3C)n2)ccc1Cl
3.13
Cc1cnc(C(C)NC(=O)c2cc(CNC3=NCCC3)cc(-c3ccc(F)cc3C(F)(F)F)n2)cc1Cl (centres unmarked)
1.54
COc1cc(OC)cc(C(C)NC(=O)c2cc(CNC3=NCCN3)ccn2)c1 (centres unmarked)
30.3
COc1cc(CNC(=O)c2cc(CNC3=NCCC3)cc(-c3ccc(F)cc3C)n2)cc(OC)c1
11.7
COc1cc(CNC(=O)c2cc(CNC3=NCCC3)cc(-c3ccc(F)cc3C(F)(F)F)n2)cc(OC)c1
1.58

// batch mode: one Ki value per listed entry
1. COc1cc(OC)cc(C(C)NC(=O)c2cc(CNC3=NCCC3)ccn2)c1 (centres unmarked)
2. COc1cc(OC)cc(C(C)NC(=O)c2ccnc(CNC3=NCCN3)c2)c1 (centres unmarked)
3. COc1cc(OC)cc(C(C)NC(=O)c2ccnc(CNC3=NCCC3)c2)c1 (centres unmarked)

Reply:
33
32.5
44.1
